# Test system: PC-3 prostate
# test: NCI tumour cell line growth inhibition, 48 h
measurement.label: TGI (µM)
Only the number, expressed in µM, is required.

Sample CN(C)CCNC(=O)c1cccc2ccc(-c3ccc(O)cc3)nc12 — what was its TGI? 8.86

Can you look up the measured TGI of CC[As](CC)SC[C@H](C)C(=O)N1CCC[C@H]1C(=O)O for me? 0.589

Using the record for [N-]=[N+]=Nc1c([N+](=O)[O-])c(=O)n(-c2ccccc2)c2ccccc12 , report its TGI. 83.9

Dear colleague, I am looking for the recorded TGI of the following molecule: Cn1c(I)c(C#CCO[Si](C)(C)C(C)(C)C)c(=O)[nH]c1=O 32.7

Reported TGI for Brc1ccc2[nH]cc(-c3csc(-c4c[nH]c5ccccc45)n3)c2c1 : what is it? 10.2

* * *

# Tested on: MDA-MB-231 breast
# test: NCI tumour cell line growth inhibition, 48 h
measurement.label: TGI

Using the record for CC1(C)S[C@@H]2[C@H](NC(=O)C3(N)CCCCC3)C(=O)N2[C@H]1C(=O)O , report its TGI. > 100 µM

Fill blank: measured TGI of the compound CC1(C)OC(C(=O)Nc2cc3c4ccccc4ccc3c3ccccc23)C(C(=O)N2CCCCC2)O1 (stereo unspecified) is ____. > 100 µM

Reported TGI for COC(=O)c1c(O)ccc2c1c1c(n2Cc2cc(OC)cc(OC)c2)C(=O)c2ccccc2C1 : what is it? 91.6 µM

Form field: reported TGI of CSc1nc(=O)n(CCC#N)nc1SC > 100 µM

Name the recorded TGI for Nc1ccc2c(c1)C(=O)N1CCC[C@H]1C(=O)N2 . > 100 µM

Param item = CC(=O)N=C1N(/C=C2\C(=O)Oc3ccccc3C2=O)C(=O)/C(=C/c2cccc(Cl)c2Cl)N1C ; retrieve measured TGI. 86.4 µM

Need TGI of CC(C)NC(=O)OCc1c(COC(=O)NC(C)C)c(-c2cc[n+](COC(=O)C3CC3)cc2)n2c1CCC2 , thanks. > 100 µM

// query TGI value for entry CC(=O)N(C(C)=O)c1ncc(-n2nc(-c3ccccc3)cc2-c2ccccc2)c(-c2ccccc2)n1 > 10 µM

Can you look up the measured TGI of Cn1cc(C2=C(c3ccc(N)cc3)C(=O)NC2=O)c2ccccc21 for me? > 25 µM

# lookup: TGI of Cc1ccc(-c2c(C#N)c(-c3ccc(C)cc3)n(NS(=O)(=O)c3ccccc3)c(=O)c2C#N)cc1 > 100 µM

Value lookup for TGI; key = Brc1ccc2[nH]cc(-c3csc(-c4c[nH]c5ccccc45)n3)c2c1 6.37 µM

# query: TGI of entry [N-]=[N+]=Nc1c([N+](=O)[O-])c(=O)n(-c2ccccc2)c2ccccc12 59.2 µM

Consider the compound shown here: COc1cc(-c2oc(=O)ccc2C#Cc2ccccn2)cc(OC)c1OC What is its recorded TGI? > 72.4 µM

Record request: TGI value, item N=C(N)C1CN(CCc2c[nH]c3ccccc23)C(=O)NC1=O (stereo unspecified) > 100 µM

// returns reported TGI for input CCO/C(O)=C(/C(=N)N1CCOCC1)C(=O)Nc1ccc(F)cc1 > 100 µM

So what's the measured TGI for this one? C=C(Cl)C(=CCl)CCC(Br)C(C)(C)Cl (mixture of isomers) > 10 µM
